# Assay Target: [35S]-TBPS binding, rat brain cortical membranes
# Assay Overview: Steroid inhibition of TBPS binding ([35S]-TBPS radioligand displacement)
# Setup Conditions: 3 nM [35S]-TBPS, 5 μM GABA
pIC50: −log10 of the molar value.
Test Readout: pIC50

Compound: C[C@@H](C(=O)[C@H]1CC[C@H]2[C@@H]3CC[C@H]4C[C@](C)(O)CC[C@]4(C)[C@H]3CC[C@]12C)n1ccnn1 [Compound 93]
pIC50: 6.30 to 7.00
//
Compound: C[C@@H](C(=O)[C@H]1CC[C@H]2[C@@H]3CC[C@@H]4C[C@](C)(O)CC[C@]4(C)[C@H]3CC[C@]12C)n1nccn1 [Compound 57]
pIC50: 6.30 to 7.00

For every item in the list below, what is its measured pIC50?
1. C[C@H](C(=O)[C@H]1CC[C@H]2[C@@H]3CC[C@H]4C[C@](C)(O)CC[C@]4(C)[C@H]3CC[C@]12C)n1nccn1 [Compound 90]
2. C[C@@]1(O)CC[C@@]2(C)[C@@H](CC[C@@H]3[C@@H]2CC[C@]2(C)[C@@H](C(=O)Cn4ncc5ccc(F)cc54)CC[C@@H]32)C1 [Compound 238]
3. C[C@H](C(=O)[C@H]1CC[C@H]2[C@@H]3CC[C@@H]4C[C@](C)(O)CC[C@]4(C)[C@H]3CC[C@]12C)n1cc(C#N)cn1 [Compound 72]

["< 6.30", "7.00 to 7.30", "7.30 to 8.00"]

###

# Assay Target: [35S]-TBPS binding, rat brain cortical membranes
# Assay Overview: Steroid inhibition of TBPS binding ([35S]-TBPS radioligand displacement)
# Setup Conditions: 3 nM [35S]-TBPS, 5 μM GABA
Test Readout: IC50

Check out these entries, answers already filled in.
Compound: CC(=O)Nc1cnn(CC(=O)[C@H]2CC[C@H]3[C@@H]4CC[C@H]5C[C@](C)(O)CC[C@]5(C)[C@H]4CC[C@]23C)c1 [Compound 153]
IC50: 100 to 500 nM
//
Compound: CC(C(=O)[C@H]1CC[C@H]2[C@@H]3CC[C@@H]4C[C@](C)(O)CC[C@]4(C)[C@H]3CC[C@]12C)n1ccnn1 (stereo in doubt) [Compound 58]
IC50: > 500 nM
//
Compound: C[C@@]1(O)CC[C@@]2(C)[C@@H](CC[C@@H]3[C@@H]2CC[C@]2(C)[C@@H](C(=O)Cn4cnc(C#N)c4)CC[C@@H]32)C1 [Compound 138]
IC50: 100 to 500 nM

For every item in the list below, what is its measured IC50?
1. C[C@@]1(O)CC[C@@]2(C)[C@@H](CC[C@@H]3[C@@H]2CC[C@]2(C)[C@@H](C(=O)Cn4nnc5ccc(Cl)c(F)c54)CC[C@@H]32)C1 [Compound 113]
2. CC(C)(C(=O)[C@H]1CC[C@H]2[C@@H]3CC[C@H]4C[C@](C)(O)CC[C@]4(C)[C@H]3CC[C@]12C)n1nnc2ccccc21 [Compound 102]

["10 to 50 nM", "> 500 nM"]

###

Exercise: state measured Emax at 10 µM for each of the compounds provided.
# Assay Target: α1β2γ2 GABAA receptors (Homo sapiens (Human), UniProt P14867+P47870)
# Assay Overview: Patch clamp electrophysiology (QPatch) of recombinant α1β2γ2 GABAA receptors in LTK cells
# Type: cell-based
# Setup Conditions: 10 μM test article, GABA EC20 = 2 μM, read-out: GABA (α1β2γ2) Qpatch in Ltk, % efficacy at 10 μM

Structure As Smiles: C[C@@]1(O)CC[C@@]2(C)[C@@H](CC[C@@H]3[C@@H]2CC[C@]2(C)[C@@H](C(=O)Cn4nnc5cc(F)c(F)cc54)CC[C@@H]32)C1
Emax at 10 µM: 100 to 500%
//
Structure As Smiles: COc1ccc2nnn(CC(=O)[C@H]3CC[C@H]4[C@@H]5CC[C@H]6C[C@](C)(O)CC[C@]6(C)[C@H]5CC[C@]34C)c2c1
Emax at 10 µM: 100 to 500%

For every item in the list below, what is its measured Emax at 10 µM?
1. CO[C@H]1C[C@@]2(C)[C@@H](CC[C@@H]3[C@@H]2CC[C@]2(C)[C@@H](C(=O)Cn4ccnn4)CC[C@@H]32)C[C@@H]1O
2. CO[C@H]1C[C@@]2(C)[C@@H](CC[C@@H]3[C@@H]2CC[C@]2(C)[C@@H](C(=O)CN4CCOCC4)CC[C@@H]32)C[C@@H]1O
3. Cc1cnn(CC(=O)[C@H]2CC[C@H]3[C@@H]4CC[C@@H]5C[C@](C)(O)CC[C@]5(C)[C@H]4CC[C@]23C)c1
4. C[C@@]1(O)CC[C@@]2(C)[C@@H](CC[C@@H]3[C@@H]2CC[C@]2(C)[C@@H](C(=O)Cn4ncnn4)CC[C@@H]32)C1

1: 100 to 500%; 2: 100 to 500%; 3: > 500%; 4: 100 to 500%

###

# Assay Target: [35S]-TBPS binding, rat brain cortical membranes
# Assay Overview: Steroid inhibition of TBPS binding ([35S]-TBPS radioligand displacement)
# Setup Conditions: 3 nM [35S]-TBPS, 5 μM GABA
Exercise: state measured IC50 for each of the compounds provided.

Compound: CC(C(=O)[C@H]1CC[C@H]2[C@@H]3CC[C@@H]4C[C@](C)(O)CC[C@]4(C)[C@H]3CC[C@]12C)n1nccn1 (stereo in doubt)
Val: 50 to 100 nM

For every item in the list below, what is its measured IC50?
1. C[C@@]1(O)CC[C@@]2(C)[C@@H](CC[C@@H]3[C@@H]2CC[C@]2(C)[C@@H](C(=O)Cn4ncc5cc(F)ccc54)CC[C@@H]32)C1
2. C[C@H](C(=O)[C@H]1CC[C@H]2[C@@H]3CC[C@H]4C[C@](C)(O)CC[C@]4(C)[C@H]3CC[C@]12C)n1cc(C#N)cn1
3. CC(C(=O)[C@H]1CC[C@H]2[C@@H]3CC[C@@H]4C[C@](C)(O)CC[C@]4(C)[C@H]3CC[C@]12C)n1nnc2ccccc21 (stereo in doubt)

10 to 50 nM
100 to 500 nM
10 to 50 nM

For every item in the list below, what is its measured IC50?
1. CC(C(=O)[C@H]1CC[C@H]2[C@@H]3CC[C@@H]4C[C@](C)(O)CC[C@]4(C)[C@H]3CC[C@]12C)n1nc2ccccc2n1 (stereo in doubt)
2. C[C@@H](C(=O)[C@H]1CC[C@H]2[C@@H]3CC[C@@H]4C[C@](C)(O)CC[C@]4(C)[C@H]3CC[C@]12C)n1cc(C#N)cn1
3. C[C@H](C(=O)[C@H]1CC[C@H]2[C@@H]3CC[C@H]4C[C@](C)(O)CC[C@]4(C)[C@H]3CC[C@]12C)n1ccnn1
4. C[C@@H](C(=O)[C@H]1CC[C@H]2[C@@H]3CC[C@H]4C[C@](C)(O)CC[C@]4(C)[C@H]3CC[C@]12C)n1nc2ccccc2n1

1. 100 to 500 nM
2. 10 to 50 nM
3. > 500 nM
4. 10 to 50 nM

For every item in the list below, what is its measured IC50?
1. C[C@@H](C(=O)[C@H]1CC[C@H]2[C@@H]3CC[C@H]4C[C@](C)(O)CC[C@]4(C)[C@H]3CC[C@]12C)n1cc(C#N)cn1
2. C[C@@]1(O)CC[C@@]2(C)C(CC[C@H]3[C@@H]4CC[C@H](C(=O)Cn5nc6ccc(S(C)(=O)=O)cc6n5)[C@@]4(C)CC[C@@H]32)C1 (stereo in doubt)
3. C[C@@H](C(=O)[C@H]1CC[C@H]2[C@@H]3CC[C@H]4C[C@](C)(O)CC[C@]4(C)[C@H]3CC[C@]12C)n1nccn1

["10 to 50 nM", "< 10 nM", "50 to 100 nM"]

###

# Assay Target: α1β2γ2 GABAA receptors (Homo sapiens (Human), UniProt P14867+P47870)
# Assay Overview: Patch clamp electrophysiology (QPatch) of recombinant α1β2γ2 GABAA receptors in LTK cells
# Assay type: cell-based
# Setup Conditions: 10 μM test article, GABA EC20 = 2 μM, read-out: GABA (α1β2γ2) Qpatch in Ltk, % efficacy at 10 μM
Exercise: state measured Emax at 10 µM for each of the molecules provided.

Check out these entries, answers already filled in.
Molecule: COc1ccc2nn(CC(=O)[C@H]3CC[C@H]4[C@@H]5CC[C@H]6C[C@](C)(O)CC[C@]6(C)[C@H]5CC[C@]34C)nc2c1 [Compound 125]
Emax at 10 µM: 100 to 500%

Molecule: CNC(=O)c1cnn(CC(=O)[C@H]2CC[C@H]3[C@@H]4CC[C@@H]5C[C@](C)(O)CC[C@]5(C)[C@H]4CC[C@]23C)c1 [Compound 168]
Emax at 10 µM: 100 to 500%

# context switch: different molecule, same Emax at 10 µM
For the molecule C[C@@]1(O)CC[C@@]2(C)[C@H](CC[C@@H]3[C@@H]2CC[C@]2(C)[C@@H](C(=O)Cn4cc(C(N)=O)cn4)CC[C@@H]32)C1 [Compound 167] , what Emax at 10 µM is on record? 100 to 500%
